The values you see were collected from ChEMBL document CHEMBL4840357.

Test system: Vero
Assay: Cytotoxicity against African green monkey Vero cells assessed as reduction in cell viability incubated for 48 hrs by CellTiter 96 aqueous one solution reagent based assay
Conditions: Chlorocebus sabaeus
pIC50: −log10 of the molar value.
measure: pIC50

molecule smiles | system tested | measure | assay value
CCCCCCn1c2c([n+](CCCCCC)c1C)C(=O)c1ccccc1C2=O | Vero | pIC50 | 4.85
CCCCCCCCn1c2c([n+](C3CCC4(CCCCC4)CC3)c1C)C(=O)c1ccccc1C2=O | Vero | pIC50 | 5.30
CCCCCCn1c2c([n+](C3CCC4(CCCCC4)CC3)c1C)C(=O)c1ccccc1C2=O | Vero | pIC50 | 5.20
CCCCCCCn1c2c([n+](CCCCC)c1C)C(=O)c1ccccc1C2=O.[Br-] | Vero | pIC50 | 4.70
CCCCCCCCn1c2c([n+](CCCC)c1C)C(=O)c1ccccc1C2=O.[Br-] | Vero | pIC50 | 4.62
CCCCn1c2c([n+](C3CCC4(CCCCC4)CC3)c1C)C(=O)c1ccccc1C2=O.[Br-] | Vero | pIC50 | 4.82
